Biological target: pWT PDZ2 L391F (Homo sapiens, UniProt Q12959, C378A/I342W/L391F)
Construct: constituting SAP97 residues 311–407 and the mutations I342W and C372A; His-tagged lipoyl protein domain (N, cleaved yes); made in house
Assay: Stopped-flow binding kinetics, peptide with pWT PDZ2 L391F
Settings: Trp342 fluorescence, 1 µM PDZ, peptide 2–40 µM, N-acetylated peptide, 50 mM potassium phosphate pH 7.5, 10 °C, value ± standard error
Ends that are not written are not given here.
Items are presented alongside their recorded kon.
Just so you know, I need the unit written after the number.

Guide cases for kon, answers given:
substance	target_under_test	kon
Ac-YRRESAI [YRRESAI]	pWT PDZ2 L391F (Homo sapiens, UniProt Q12959, C378A/I342W/L391F)	1.9e+07 M⁻¹ s⁻¹
Ac-RRRETQV [RRRETQV, reference compound]	pWT PDZ2 L391F (Homo sapiens, UniProt Q12959, C378A/I342W/L391F)	8.7e+06 M⁻¹ s⁻¹
Ac-NSKETVV [NSKETVV]	pWT PDZ2 L391F (Homo sapiens, UniProt Q12959, C378A/I342W/L391F)	1.3e+07 M⁻¹ s⁻¹
Ac-SARSTDV [SARSTDV]	pWT PDZ2 L391F (Homo sapiens, UniProt Q12959, C378A/I342W/L391F)	1.8e+07 M⁻¹ s⁻¹
Ac-EKKHTLL [EKKHTLL]	pWT PDZ2 L391F (Homo sapiens, UniProt Q12959, C378A/I342W/L391F)	1.1e+07 M⁻¹ s⁻¹
Ac-VSKETPL [VSKETPL]	pWT PDZ2 L391F (Homo sapiens, UniProt Q12959, C378A/I342W/L391F)	1.1e+07 M⁻¹ s⁻¹
Ac-PGKETQL [PGKETQL]	pWT PDZ2 L391F (Homo sapiens, UniProt Q12959, C378A/I342W/L391F)	2e+07 M⁻¹ s⁻¹
Ac-KRKETLV [KRKETLV]	pWT PDZ2 L391F (Homo sapiens, UniProt Q12959, C378A/I342W/L391F)	7.4e+06 M⁻¹ s⁻¹

Summary: Ac-TSRETDL [TSRETDL] , pWT PDZ2 L391F (Homo sapiens, UniProt Q12959, C378A/I342W/L391F), kon = 1.8e+07 M⁻¹ s⁻¹

Summary: Ac-RSISTDV [RSISTDV] , pWT PDZ2 L391F (Homo sapiens, UniProt Q12959, C378A/I342W/L391F), kon = 2.4e+07 M⁻¹ s⁻¹

----------
Molecular target: pWT PDZ2 (pseudo wild type SAP97 PDZ2, I342W/C378A) (Homo sapiens, UniProt Q12959, C378A/I342W)
Construct: constituting SAP97 residues 311–407 and the mutations I342W and C372A; His-tagged lipoyl protein domain (N, cleaved yes); made in house
Assay: Stopped-flow binding kinetics, peptide with pWT PDZ2
Settings: Kd = koff/kon, pH 7.5, 10 °C, ± propagated standard error
Ends that are not written are not given here.
Items are presented alongside their recorded Kd.
Just so you know, I need the unit written after the number.

Guide cases for Kd, answers given:
substance	Kd
Ac-VSKETPL [VSKETPL]	3900 nM
Ac-PGKETQL [PGKETQL]	2800 nM

get_value(item= Ac-SARSTDV [SARSTDV] , readout=Kd) returns 1600 nM

get_value(item= Ac-KRKETLV [KRKETLV] , readout=Kd) returns 470 nM

get_value(item= Ac-EKKHTLL [EKKHTLL] , readout=Kd) returns 9300 nM

get_value(item= Ac-NSKETVV [NSKETVV] , readout=Kd) returns 660 nM

get_value(item= Ac-RSISTDV [RSISTDV] , readout=Kd) returns 1200 nM
